Value source: PubChem BioAssay AID1224817

For each record, write down the corresponding log2 luciferase activity ratio.
# Protocol notes: eIF4E expression suppression, luciferase knock-in reporter – cell-based, HT1080, primary screen (AID 1224817);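 also: luciferase reports endogenous eIF4E expression since it is co-expressed from the native EIF4E locus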
# Details: HT1080 EIF4E-luc2 knock-in reporter, 16 h, at 2.5 µM, stronger effect = lower value
In all, about 2,000 compounds went through this assay and about 25 (1%) were called active. The sample holds actives, similar compounds and a random draw of the others, so the mix is not that of the screen.
Answers are plain numbers.

Previously resolved entries follow.
Asked: Would you kindly share the measured log2 luciferase activity ratio for NNC(=O)C(O)C(O)C(=O)NN (stereo unspecified) ?
Given back: 0.225

Asked: Would you kindly share the measured log2 luciferase activity ratio for `NC1(C(=O)NC2(C(=O)O)CCCC2)CCCC1` ?
Given back: 0.0359

Asked: Would you kindly share the measured log2 luciferase activity ratio for `COc1ccc(/C=N/NC(=O)O)cc1` ?
Given back: 0.161

Asked: Would you kindly share the measured log2 luciferase activity ratio for CC(=O)[C@H]1CC[C@@H]2[C@]1(C)CC=C1[C@]23C=C[C@]2(C[C@@H](O)CC[C@]12C)C(C(=O)O)C3C(=O)O (stereo partly specified) ?
Given back: -0.137

Asked: Would you kindly share the measured log2 luciferase activity ratio for `CN1CCN(CC(=O)N2c3ccccc3Sc3cc4ccccc4cc32)CC1` ?
Given back: 0.0693

Asked: Would you kindly share the measured log2 luciferase activity ratio for `Oc1c(Cl)cc(C(c2cc(Cl)c(O)c(Cl)c2)C(c2cc(Cl)c(O)c(Cl)c2)c2cc(Cl)c(O)c(Cl)c2)cc1Cl` ?
Given back: -0.198

# batch size: 2; output log2 luciferase activity ratio per entry
1. O=C(O)c1cc(=O)[nH]c(=S)[nH]1
2. Cc1cc(N2CCOCC2)nc2ccc(Cc3ccc4nc(N5CCOCC5)cc(C)c4c3)cc12

Given back:
[0.238, 0.197]
